system: Epidermal growth factor receptor (Homo sapiens), P00533 [UNDEFINED MUTATION]; conditions: dose 100.0 nM
Sequence (P00533 whole entry, looked up, change not shown): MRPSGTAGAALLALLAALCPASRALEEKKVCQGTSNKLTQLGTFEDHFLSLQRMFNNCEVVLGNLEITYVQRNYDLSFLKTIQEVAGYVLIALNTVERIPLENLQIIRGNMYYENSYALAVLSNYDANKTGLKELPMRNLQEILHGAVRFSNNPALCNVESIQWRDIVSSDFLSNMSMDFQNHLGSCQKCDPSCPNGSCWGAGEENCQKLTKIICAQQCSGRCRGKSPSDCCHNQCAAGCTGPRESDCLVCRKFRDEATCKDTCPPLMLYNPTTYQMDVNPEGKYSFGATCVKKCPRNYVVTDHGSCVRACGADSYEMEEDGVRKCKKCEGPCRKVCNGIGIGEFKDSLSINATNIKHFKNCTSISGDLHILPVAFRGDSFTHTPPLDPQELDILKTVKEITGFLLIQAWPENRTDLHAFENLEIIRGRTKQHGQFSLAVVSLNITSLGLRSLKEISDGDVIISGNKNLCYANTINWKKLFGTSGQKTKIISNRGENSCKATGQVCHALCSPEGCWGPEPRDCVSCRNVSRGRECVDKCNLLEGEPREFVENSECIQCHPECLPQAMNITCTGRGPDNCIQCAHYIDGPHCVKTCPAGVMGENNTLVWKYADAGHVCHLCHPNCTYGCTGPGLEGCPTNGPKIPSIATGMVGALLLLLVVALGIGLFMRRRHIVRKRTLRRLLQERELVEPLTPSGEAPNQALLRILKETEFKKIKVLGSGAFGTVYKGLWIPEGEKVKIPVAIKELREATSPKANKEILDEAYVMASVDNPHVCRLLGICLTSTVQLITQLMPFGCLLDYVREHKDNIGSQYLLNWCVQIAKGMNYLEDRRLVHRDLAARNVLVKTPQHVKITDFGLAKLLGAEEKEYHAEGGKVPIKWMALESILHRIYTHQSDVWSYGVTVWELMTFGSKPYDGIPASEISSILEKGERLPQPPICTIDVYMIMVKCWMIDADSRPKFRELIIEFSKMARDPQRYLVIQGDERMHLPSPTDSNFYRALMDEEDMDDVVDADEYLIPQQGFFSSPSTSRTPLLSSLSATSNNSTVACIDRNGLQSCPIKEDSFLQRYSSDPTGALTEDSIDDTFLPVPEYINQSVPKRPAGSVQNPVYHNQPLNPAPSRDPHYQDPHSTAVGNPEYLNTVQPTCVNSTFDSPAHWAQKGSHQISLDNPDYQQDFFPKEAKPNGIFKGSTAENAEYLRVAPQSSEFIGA
Quick reference: inhibition of the listed items.
Answer format: numeric, % implied, no suffix.

Below: 4 compounds and their reported inhibition.
1. O=C(NO)c1sccc1Nc1nc(Nc2ccc(N3CCOCC3)cc2)ncc1Br = 67.2
2. O=C(NO)c1ccsc1Nc1nc(Nc2ccc(OCCN3CCOCC3)cc2)ncc1Br = 51.3
3. O=C(NO)c1ccsc1Nc1nc(Nc2ccc(CN3CCOCC3)cc2)ncc1Br = 62.5
4. O=C(NO)c1ccsc1Nc1nc(Nc2cccc(N3CCOCC3)c2)ncc1Cl = 66.8

Specify inhibition for O=C(NO)c1ccsc1Nc1nc(Nc2ccc(N3CCOCC3)cc2)ncc1Br and stop.
55.9

Specify inhibition for O=C(NO)c1ccsc1Nc1ccnc(Nc2ccc(N3CCOCC3)cc2)n1 and stop.
50.2

Specify inhibition for O=C(NO)c1sc2ccccc2c1Nc1nc(Nc2ccc(N3CCOCC3)cc2)ncc1Br and stop.
4.79

Specify inhibition for O=C(NO)c1ccsc1Nc1nc(Nc2ccc(OCCN3CCOCC3)cc2)ncc1Cl and stop.
66

Specify inhibition for O=C(NO)c1ccsc1Nc1nc(Nc2ccc(CN3CCOCC3)cc2)ncc1Cl and stop.
70.9

Specify inhibition for COc1cc(N2CCC(N3CCN(C)CC3)CC2)ccc1Nc1ncc(Cl)c(Nc2ccccc2P(C)(C)=O)n1 and stop.
89.7

Specify inhibition for Cc1cnc(Nc2ccc(N3CCOCC3)cc2)nc1Nc1ccsc1C(=O)NO and stop.
71.2

Specify inhibition for Cc1cnc(Nc2ccc(N3CCOCC3)cc2)nc1Nc1sccc1C(=O)NO and stop.
57.2

Specify inhibition for COc1cc(Nc2ncc(Cl)c(Nc3sccc3C(=O)NO)n2)cc(OC)c1OC and stop.
59.9

* * *

test system: HCC827; experiment: Antiproliferative activity against human HCC827 cells assessed as inhibition of cell growth measured after 72 hrs by MTT assay; format: functional, cell-based; conditions: HCC827, 72 h
measure_name: IC50 (nM)
Answer format: numeric, nM implied, no suffix.

Below: 2 compounds and their reported IC50.
1. O=C(NO)c1ccsc1Nc1nc(Nc2cccc(N3CCOCC3)c2)ncc1Cl = 462
2. O=C(NO)c1ccsc1Nc1nc(Nc2ccc(N3CCOCC3)cc2)ncc1Cl = 31

Specify IC50 for COc1cc(Nc2ncc(Cl)c(Nc3ccsc3C(=O)NO)n2)cc(OC)c1OC and stop.
896

* * *

Quick reference: IC50 at 72 h of the listed items.
assay: Cytotoxicity against human L02 cells assessed as inhibition of cell viability measured after 72 hrs by MTT assay; format: toxicity, cell-based
Answer format: numeric, µM implied, no suffix.

Below: 2 compounds and their reported IC50 at 72 h.
1) C=CC(=O)Nc1cc(Nc2nccc(-c3cn(C)c4ccccc34)n2)c(OC)cc1N(C)CCN(C)C = 8.42
2) O=C(NO)c1sccc1Nc1nc(Nc2ccc(N3CCOCC3)cc2)ncc1Cl = 2.45

For the next question, use this compound.
Specify IC50 at 72 h for O=C(NO)c1ccsc1Nc1nc(Nc2ccc(N3CCOCC3)cc2)ncc1Cl and stop.
5.03

* * *

target: Epidermal growth factor receptor (Homo sapiens, UniProt P00533, EX19DEL/T790M); test: Inhibition of EGFR Del19/T790M (unknown origin) preincubated for 10 mins followed by substrate addition and measured after 50 mins in presence of ATP by HTRF assay
measure_name: pIC50
Notebook: values listed as pIC50 are -log10 of the concentration (mol/L).

1) O=C(NO)c1sccc1Nc1nc(Nc2ccc(N3CCOCC3)cc2)ncc1Cl = 6.67

For the next question, use this compound.
Specify pIC50 for O=C(NO)c1ccsc1Nc1nc(Nc2ccc(N3CCOCC3)cc2)ncc1Cl and stop.
6.05

Reference for the values: ChEMBL document CHEMBL5518185
